experiment: Cytotoxicity against human HepG2 cells assessed as reduction in cell number at 30 uM after 72 hrs by fluorescent image analysis relative to untreated control; assay type: cell-based; conditions: read-out: INH

{"COMPOUND": "CCCCCCNC(=O)C1C(=O)N(O)C(=O)c2ccccc21 (configuration not stated)", "U": "%", "cytotoxicity at 72 h, 30 µM": 4.9}
{"COMPOUND": "O=C(NCc1ccc(F)cc1)C1C(=O)N(O)C(=O)c2ccccc21 (configuration not stated)", "U": "%", "cytotoxicity at 72 h, 30 µM": 25.7}

* * *

experiment: Therapeutic index, ratio of CC50 for human MT4 cells to EC50 for HIV1 3B infected in human MT4 cells; assay type: cell-based; conditions: read-out: Ratio CC50/EC50

{"COMPOUND": "O=C(NC1CC1)C1C(=O)N(O)C(=O)c2ccccc21 (stereo unspecified)", "selectivity ratio": "> 6"}
{"COMPOUND": "CCCNC(=O)C1C(=O)N(O)C(=O)c2ccccc21 (stereo unspecified)", "selectivity ratio": 4.7}
{"COMPOUND": "O=C(NC1CCCCC1)C1C(=O)N(O)C(=O)c2ccccc21 (stereo unspecified)", "selectivity ratio": "> 3"}
{"COMPOUND": "CCCCCCCCCNC(=O)C1C(=O)N(O)C(=O)c2ccccc21 (stereo unspecified)", "selectivity ratio": 3}
{"COMPOUND": "CCCCCCNC(=O)C1C(=O)N(O)C(=O)c2ccccc21 (stereo unspecified)", "selectivity ratio": 21.2}
{"COMPOUND": "CCCCCCCNC(=O)C1C(=O)N(O)C(=O)c2ccccc21 (stereo unspecified)", "selectivity ratio": 3.4}
{"COMPOUND": "CCCCCCCCNC(=O)C1C(=O)N(O)C(=O)c2ccccc21 (stereo unspecified)", "selectivity ratio": 3.5}
{"COMPOUND": "CCCCNC(=O)C1C(=O)N(O)C(=O)c2ccccc21 (stereo unspecified)", "selectivity ratio": 14}
{"COMPOUND": "CCCCCNC(=O)C1C(=O)N(O)C(=O)c2ccccc21 (stereo unspecified)", "selectivity ratio": 12.1}
{"COMPOUND": "O=C(NC1CCCC1)C1C(=O)N(O)C(=O)c2ccccc21 (stereo unspecified)", "selectivity ratio": "> 4"}
{"COMPOUND": "CC(C)NC(=O)C1C(=O)N(O)C(=O)c2ccccc21 (stereo unspecified)", "selectivity ratio": 5.4}
